The values you see were collected from PubChem BioAssay (NCI).

Test system: PC-3 prostate
Assay: NCI tumour cell line growth inhibition, 48 h; in the data active means GI50 below about 0.43 µM; inactive means the rest
Outcomes you can answer with include only these: T = active, F = inactive

Request: Any idea what this test logged for "CN(C)CCC(=O)NCc1c2nc3ccccc3nc2n2ccccc12" ?
Response: F

Request: Any idea what this test logged for "COc1ccc(-c2cc3nccn3c(Nc3ncccc3C(N)=O)n2)cc1OC" ?
Response: F

Request: Any idea what this test logged for "NCCCn1c2c(c3ccc([N+](=O)[O-])cc3c1=O)C(=O)c1cc(Cl)ccc1-2" ?
Response: T

Request: Any idea what this test logged for "Cc1[nH]ccc2cc3nc4ccccc4c3cc12" ?
Response: F

Request: Any idea what this test logged for "COC(=O)C1=C2CO[C@@H]3C[C@H]4C(C)(C)CCC[C@]4(C)C(=CC1)[C@]23C" ?
Response: T

Request: Any idea what this test logged for "CC(C)(C)n1cc(-c2ccnc(NCCCNS(=O)(=O)c3ccc(Cl)cc3)c2)c(-c2cccc(O)c2)n1" ?
Response: F

Request: Any idea what this test logged for Cc1ccc2oc(=O)cc(C3c4ccc([nH]4)C(c4cc(=O)oc5ccc(C)cc45)c4ccc([nH]4)C(c4cc(=O)oc5ccc(C)cc45)c4ccc([nH]4)C(c4cc(=O)oc5ccc(C)cc45)c4ccc3[nH]4)c2c1 (stereo not drawn) ?
Response: T

Request: Any idea what this test logged for "O=C1C(Cl)=C(Nc2ccc3c(c2NC2=C(Cl)C(=O)c4ccccc4C2=O)C(=O)c2ccccc2C3=O)C(=O)c2ccccc21" ?
Response: F

----------
System: NCI-H226 lung
Test: NCI tumour cell line growth inhibition, 48 h
For each of the molecules below, state its TGI.
I only need the number, in µM, no unit after it.

Request: Fill in reported TGI for this entry: "C=C1C(=O)O[C@H]2[C@H]1CC/C(COC(=O)NCc1cccc(OC)c1)=C\CC[C@@]1(C)O[C@@H]21"
Response: 27.8

Request: Fill in reported TGI for this entry: "Clc1ccc2c(NCCN3CCN(c4ccnc(N5CCCC5)n4)CC3)ccnc2c1"
Response: 41

----------
For each of the compounds below, state its TGI.
Test system: DMS 273 small cell lung
Assay: NCI tumour cell line growth inhibition, 48 h

Request: Look up and report TGI, with DMS 273 small cell lung as system, for "CN(C)NC(=S)NC12CC3CC(CC(C3)C1)C2"
Response: > 100 µM

Request: Look up and report TGI, with DMS 273 small cell lung as system, for "CN(Cc1ccccc1)c1nc(=[N+](C)C)ss1"
Response: > 100 µM

Request: Look up and report TGI, with DMS 273 small cell lung as system, for "COc1cc(CCC(=O)NS(=O)(=O)c2ccccc2)cc(OC)c1OC"
Response: > 100 µM

Request: Look up and report TGI, with DMS 273 small cell lung as system, for COc1ccc(CC(C#N)c2cc(OC)c(OC)c(OC)c2)cc1 (centres undefined)
Response: 0.405 µM

Request: Look up and report TGI, with DMS 273 small cell lung as system, for "CN(/C(=N\O)c1ccccc1)c1ccccc1"
Response: 50.7 µM

Request: Look up and report TGI, with DMS 273 small cell lung as system, for CCCCCCCCCCCCCCCCCCOCC1(COP(=O)([O-])OCC[N+](C)(C)C)CCCO1 (centres undefined)
Response: 3.13 µM

Request: Look up and report TGI, with DMS 273 small cell lung as system, for CC1=NN(C(=O)c2ccccc2)C(=O)C1N=Nc1ccccc1C(=O)O (centres undefined)
Response: > 100 µM

Request: Look up and report TGI, with DMS 273 small cell lung as system, for CN(C(=O)C1CC1)C1C2CN3CCC(O2)C13 (centres undefined)
Response: > 100 µM

Request: Look up and report TGI, with DMS 273 small cell lung as system, for O/N=C1/C(=C/c2ccccc2)CCCC1C(NO)c1ccccc1 (centres undefined)
Response: > 100 µM

Request: Look up and report TGI, with DMS 273 small cell lung as system, for "COC(=O)C[C@](O)(CCC(C)(C)O)C(=O)O[C@@H]1C(OC)=C[C@]23CCCN2CCc2cc4c(cc2[C@H]13)OCO4"
Response: 0.131 µM

Request: Look up and report TGI, with DMS 273 small cell lung as system, for "CC(=O)Oc1cc(OC(C)=O)c2cc3c(cc2c1OC(C)=O)C(=O)C1(CCCC1)C3=O"
Response: 35.8 µM

Request: Look up and report TGI, with DMS 273 small cell lung as system, for "COc1cc(C(=C2SCCS2)c2nccc3cc(OC)c(OC)cc23)c([N+](=O)[O-])cc1OC"
Response: > 100 µM

Request: Look up and report TGI, with DMS 273 small cell lung as system, for "Cn1c(=O)c2[nH]cnc2n(CC(=O)O)c1=O"
Response: > 100 µM

Request: Look up and report TGI, with DMS 273 small cell lung as system, for "Cc1cccc(NC(=O)Cc2nc3ccccc3s2)c1C"
Response: > 100 µM

----------
System: BT-549 breast
Test: NCI tumour cell line growth inhibition, 48 h
For each of the compounds below, state its TGI.

Request: Fill in reported TGI for this entry: "Cc1cccc2cc3ccc4ccccc4c3cc12"
Response: > 100 µM

Request: Fill in reported TGI for this entry: CNC(=O)C(NC(=O)[C@H](CC(C)C)NC(=O)[C@@H](S)CCN1C(=O)N(C)C(C)(C)C1=O)C(C)(C)C (some centres undefined)
Response: > 100 µM

Request: Fill in reported TGI for this entry: "Cc1ccc(C(=O)Nc2ccccc2C(=O)N/N=C(\c2ccccc2)c2ccccn2)cc1"
Response: > 100 µM

Request: Fill in reported TGI for this entry: "CNc1nc(=O)c(C#N)c(-c2ccc(C)cc2)s1"
Response: > 100 µM

Request: Fill in reported TGI for this entry: CCC(C)c1cnc(CC(C)C)c(=O)[nH]1 (centres undefined)
Response: > 100 µM

Request: Fill in reported TGI for this entry: "ClC1=C(Cl)C(Cl)=C(Cl)C1=Cc1ccc(Cl)cc1Cl"
Response: 0.809 µM

Request: Fill in reported TGI for this entry: "C/C(=N\Nc1ncnc2ccccc12)c1ccccn1"
Response: 35.5 µM

Request: Fill in reported TGI for this entry: O=C(Nc1ccc(Cl)cc1)c1cc(S(=O)(=O)NC2=NC(c3ccccc3)c3cc(Cl)ccc3N2)c(SSc2cc(Cl)c(C(=O)Nc3ccc(Cl)cc3)cc2S(=O)(=O)NC2=NC(c3ccccc3)c3cc(Cl)ccc3N2)cc1Cl (centres undefined)
Response: > 100 µM

Request: Fill in reported TGI for this entry: "Cc1sc2c(c1C)C(c1ccc(Cl)cc1)=N[C@@H](CC(=O)Nc1ccc(O)cc1)c1nnc(C)n1-2"
Response: 24.2 µM

----------
Tested on: 786-0 renal
Assay: NCI tumour cell line growth inhibition, 48 h; in the data active means GI50 below about 0.43 µM; inactive means the rest
Outcomes you can answer with include only these: yes (1) for active, no (0) for inactive

Request: Any idea what this test logged for "COc1cccc2cc(N(C)c3nc(C)nc4ccsc34)ccc12" ?
Response: yes (1)

Request: Any idea what this test logged for CC1CCC(C#N)(NOC2=NCCN2)CC1 (stereo not given) ?
Response: no (0)

Request: Any idea what this test logged for "CO[C@@]12[C@H](COC(N)=O)C3=C(C(=O)C(C)=C(N)C3=O)N1C[C@@H]1N[C@@H]12" ?
Response: no (0)

Request: Any idea what this test logged for CC1(C)CC(O)CCCCCCOc2c(CN)cccc2NC(=O)c2nc(cnc2N)-c2ccc(cc2)S1(=O)=O (stereo not given) ?
Response: yes (1)

Request: Any idea what this test logged for "COc1ccc(Cn2cc3c(c2-c2ccccc2)CCc2cncnc2-3)cc1" ?
Response: no (0)

----------
System: A549 NSCLC
Assay: NCI tumour cell line growth inhibition, 48 h
propertyLabel: TGI

Request: Fill in reported TGI for this entry: COC(=O)C1CCC(N2C(=O)CCC2C(=O)OC)=N1 (stereo not drawn)
Response: > 100 µM

Request: Fill in reported TGI for this entry: CC(=O)C1C(=O)C(=O)N(c2ccc([N+](=O)[O-])cc2Cl)C1=O (stereo not drawn)
Response: > 100 µM

Request: Fill in reported TGI for this entry: "CCOC(=S)SC/C(=N\OC(C)(C)OC)c1ccccc1"
Response: > 100 µM

Request: Fill in reported TGI for this entry: "C=C(CN(CCN1CCOCC1)CC(=C)c1ccc(C(=O)Nc2ccccc2N)cc1)c1ccc(C(=O)Nc2ccccc2N)cc1"
Response: 24.9 µM

Request: Fill in reported TGI for this entry: "CN1CCN(c2ccc3nc(-c4ccc5nc(-c6ccc(N(C)CCCl)cc6)[nH]c5c4)[nH]c3c2)CC1"
Response: 10.1 µM

Request: Fill in reported TGI for this entry: CC(Nc1cc(=O)n(C)c(=O)[nH]1)c1ccccc1 (stereo not drawn)
Response: > 100 µM

Request: Fill in reported TGI for this entry: COC(=O)C1=C2Nc3ccccc3C23CCN2C(O)C4(CC5CC67CCOC6CCN6CCC8(c9cccc(OC)c9N(C4)C58O)C67)C4OCCC4(C1)C23 (stereo not drawn)
Response: > 100 µM

Request: Fill in reported TGI for this entry: CCC(c1nc2ccccc2c(=O)n1NC(=O)C(C)(C)C)C1(O)CCCCC1 (stereo not drawn)
Response: > 100 µM

Request: Fill in reported TGI for this entry: "Nc1ccc(S(=O)(=O)c2ccc(N=[N+]([O-])c3ccc(S(=O)(=O)c4ccc(N)cc4)cc3)cc2)cc1"
Response: > 100 µM

Request: Fill in reported TGI for this entry: C=C(C)C(=O)N1c2ccc(OC)cc2CC1C(=O)OCC (stereo not drawn)
Response: > 100 µM

Request: Fill in reported TGI for this entry: "Cc1ccc(C(=O)Nc2ccccc2C(=O)N/N=C(\c2ccccc2)c2ccccn2)cc1"
Response: > 100 µM

Request: Fill in reported TGI for this entry: "O=C1C(Nc2cccc(O)c2)=C(Sc2ccc(Cl)cc2)C(=O)N1Cc1ccccc1"
Response: 35.9 µM

Request: Fill in reported TGI for this entry: "O=C1/C(=C/c2ccc(C(F)(F)F)cc2)COc2ccc(O)cc21"
Response: 24.9 µM

Request: Fill in reported TGI for this entry: CCN1CCC(O)(c2ccc(Cl)c(Cl)c2)C(C(=O)c2ccc(Cl)c(Cl)c2)C1 (stereo not drawn)
Response: 40.7 µM

Request: Fill in reported TGI for this entry: COc1ccc(C2c3c(-c4ccccc4)nn(-c4ccccc4)c3Oc3ncn(N)c(=N)c32)cc1OC (stereo not drawn)
Response: 4.81 µM

Request: Fill in reported TGI for this entry: "CN(C)CCC(=O)NCc1c2nc3ccccc3nc2n2ccccc12"
Response: > 100 µM

Request: Fill in reported TGI for this entry: CC(=O)OC1C/C(C)=C/[C@H](O)CC(C)/C=C/[C@@]2(C)CCC(C(C)(C)O)C12 (stereo partly drawn)
Response: > 100 µM

Request: Fill in reported TGI for this entry: "COC(=O)NN=C1C(C)(C)C(=NNC(=O)OC)C1(C)C"
Response: > 100 µM
